Assay: Intrinsic clearance in human liver microsomes
Type: ADME, Microsome
Settings: read-out: CLH
MEASURED_ENDPOINT: microsomal CLint

- SMILES_ENTRY: "C[C@H]1[C@H](n2ccc(N)nc2=O)O[C@@](CO)(N=[N+]=[N-])[C@H]1O"
  microsomal CLint: "< 6 µL/min/mg"

Now for another entry.
Q: Data request, read-out microsomal CLint, for `CC(C)C(=O)OC[C@@]1(N=[N+]=[N-])O[C@@H](n2ccc(N)nc2=O)[C@H](C)[C@@H]1OC(=O)C(C)C`
Result: > 300 µL/min/mg

---

Assay: Intrinsic clearance in rat liver microsomes
Format: ADME, Microsome
Conditions: read-out: CLH
MEASURED_ENDPOINT: microsomal CLint

Q: May I ask what microsomal CLint has been recorded for `C[C@H]1[C@H](n2ccc(N)nc2=O)O[C@@](CO)(N=[N+]=[N-])[C@H]1O` ?
Result: < 6 µL/min/mg

---

Overview of recorded CL/F for various molecules
Tested on: Rattus norvegicus
Test: Apparent oral clearance in Sprague-Dawley rat assessed as 4'-azido-2'-deoxy-2'-methylcytidine level at 20 umol/kg, po
Format: ADME, organism-based
Settings: in vivo
# value in L/h/kg; strip the unit string

Known results for molecules:
- SMILES_ENTRY: "CC(C)[C@H](N)C(=O)OC[C@@]1(N=[N+]=[N-])O[C@@H](n2ccc(N)nc2=O)[C@H](C)[C@@H]1OC(=O)[C@@H](N)C(C)C.O=C(O)C(F)(F)F"
  CL/F [L/h/kg]: 14.8
- SMILES_ENTRY: "CC(C)C(=O)OC[C@@]1(N=[N+]=[N-])O[C@@H](n2ccc(N)nc2=O)[C@H](C)[C@@H]1OC(=O)C(C)C"
  CL/F [L/h/kg]: 1.55
- SMILES_ENTRY: "CC(C)[C@H](N)C(=O)O[C@H]1[C@@H](C)[C@H](n2ccc(N)nc2=O)O[C@@]1(CO)N=[N+]=[N-].O=C(O)C(F)(F)F"
  CL/F [L/h/kg]: 4.93

Q: Look up CL/F: `CC(C)[C@H](N)C(=O)OC[C@@]1(N=[N+]=[N-])O[C@@H](n2ccc(N)nc2=O)[C@H](C)[C@@H]1O.O=C(O)C(F)(F)F`
Result: 12

---

Assay: Cmax in Sprague-Dawley rat at 20 umol/kg, po
Assay type: ADME, organism-based
Parameters: dose 20 umol/kg, route oral
Conditions: in vivo
MEASURED_ENDPOINT: Cmax (nM)
Reply numerically in nM, unit not repeated.

Q: Could you share which Cmax value was measured for `C[C@H]1[C@H](n2ccc(N)nc2=O)O[C@@](CO)(N=[N+]=[N-])[C@H]1O` ?
Result: 610

---

# AUCt annotations
Test system: Rattus norvegicus
Test: AUCt in Sprague-Dawley rat assessed as 4'-azido-2'-deoxy-2'-methylcytidine level at 20 umol/kg, po
Assay type: ADME, organism-based, Plasma
Settings: in vivo

// worked examples, AUCt included
- SMILES_ENTRY: "CC(C)[C@H](N)C(=O)OC[C@@]1(N=[N+]=[N-])O[C@@H](n2ccc(N)nc2=O)[C@H](C)[C@@H]1OC(=O)[C@@H](N)C(C)C.O=C(O)C(F)(F)F"
  TEST_VALUE: "1.22 µM·h"
- SMILES_ENTRY: "CC(C)[C@H](N)C(=O)OC[C@@]1(N=[N+]=[N-])O[C@@H](n2ccc(N)nc2=O)[C@H](C)[C@@H]1O.O=C(O)C(F)(F)F"
  TEST_VALUE: "1.56 µM·h"
- SMILES_ENTRY: "CC(C)C(=O)OC[C@@]1(N=[N+]=[N-])O[C@@H](n2ccc(N)nc2=O)[C@H](C)[C@@H]1OC(=O)C(C)C"
  TEST_VALUE: "12.7 µM·h"

Here is the next item to consider.
Q: Requested read-out: AUCt. Entry: `CC(C)[C@H](N)C(=O)O[C@H]1[C@@H](C)[C@H](n2ccc(N)nc2=O)O[C@@]1(CO)N=[N+]=[N-].O=C(O)C(F)(F)F`
Result: 3.66 µM·h

Ref: ChEMBL document CHEMBL2021759
